Experiment: AUCt in male mouse at 2 mg/kg, iv
Format: ADME, organism-based
Conditions: in vivo
Parameter Measured: AUC(0-t)

Given the entry Cl.Cl.O=C(NCc1ccc(OCC(O)CN2CCN(c3noc4cc(F)ccc34)CC2)cc1)N(Cc1ccc(F)cc1)C1CCNCC1 (stereo unspecified) , report its measured AUC(0-t).
300 ng·h/mL
